assaySummary: yeast display, Sf9 membrane polyspecificity reagent, FACS + sequencing; frameworks hold sequencing errors
reportedProperty: polyreactivity (PSR sort gate)

{"constructSequence": "QVQLVESGGGLVQAGGSLRLSCAASGSTFTFNAMGWYRQAPGKERELVAVISSGGSTYYADSVKGRFTISRDNAKNTVYLQMNSLKPEDTAVYYCNKVYGYFGQYYLRYNYWGQGTQVTVSS", "reportedProperty": "polyreactivity (PSR sort gate)", "assayResult": "low polyreactivity"}
{"constructSequence": "QVQLVESGGGLVQAGGSLRLICAASGSTFNNNAMGWFRQAPGKERELVAAISYTGGSTYYADSVKGRFTISRDNAKNNVYLQMNSLKPEDTAVYYCAADYPHLGGYRYDYWGQGTQVTVSS", "reportedProperty": "polyreactivity (PSR sort gate)", "assayResult": "high polyreactivity"}
{"constructSequence": "QVQLVESGGGLVQAGGSLRLSCAASGSTFISYAMGWYRQAPGKEREMVAAISWDGGSTYYADSVKGRFTISRDNAKNTVYLQMNSLKPEDTAVYYCNAEYDGAAGRYEYWGPGTQVTVSS", "reportedProperty": "polyreactivity (PSR sort gate)", "assayResult": "low polyreactivity"}
{"constructSequence": "QVQLVESGGGLVHAGGSLRLSCAASGFTFRSYAMGWYRQAPGKERELVAAISWSGGSTYYADSVKGRYTISRDNAKNTVYLQMNSLKPEDTAVYYCAAVRVSKYDYWGQGTQVTVSS", "reportedProperty": "polyreactivity (PSR sort gate)", "assayResult": "high polyreactivity"}

Please find the next sequence below.
Problem: Return value of polyreactivity (PSR sort gate) for input QVQLVESGGGLVQAGGSLRFSCAASGRTFVPYAMGWYRQAPGKERELVARIDSSGGSTYYADSVKGRFTISRDNAKNTVYLQMNSLKPEDTAVYYCAAVFYYWSLRSYYWGQGTQVTVSS , no commentary.
Solution: high polyreactivity

* * *

assaySummary: yeast display, Sf9 membrane polyspecificity reagent, FACS + sequencing; frameworks hold sequencing errors
reportedProperty: polyreactivity (PSR sort gate)

{"constructSequence": "QVQLVESGGGLVQAGGSLRLSCAASGSILSGNTMGWYRPAPGKERELVAAISYGGGSTYYADSVKGRFTISRDNAKNTVYLQMNSLKPEDTAVYYCAADPWYVAYLLDGYGMDYWGQGTQVTVSS", "assayResult": "low polyreactivity"}
{"constructSequence": "QVQLVESGGGLVQAGGSLRLSCAASGFTFRYYAMGWYRQAPGKERELVATITTSGGSTYYADSVKGRFTISRDNAKNTVYVQMNSLKPEDTAVYYCAADYYYGRRFRSWRDFNYWGQGTQVTVSS", "assayResult": "high polyreactivity"}
{"constructSequence": "QVQLVESGGCLVQAGGSLRLSCAASGYIFGYNAMGWYRQAPGKERELVAAISYSGGSTYYADSVKGRFTISRDNAKNTVYLQMNSLKPVDTAVYYCAAGAKWIYHYYSSLQYGYWGQGTQVTVSS", "assayResult": "high polyreactivity"}
{"constructSequence": "QVQLVESGGGLVQAGGSLRLSCAASGRIFGSYAMGWYRQAPGKERELVASITSSGGSTYYADSVKGRFTISRDNAKNTVYLQMNSLKPEDTAVYYCAAGCAYLDAFYPYGYWGQGTQVTVSS", "assayResult": "low polyreactivity"}
{"constructSequence": "QVQLVESGGGLVQAGGSLRLSCAASGRTFDKYAMGWYRQAPGKERELVAAISYDAGRTYYADSVKGRFTISRDNAKNTVYLQMNSLKPEDTAVYYCNAVRFRGFGWGQGTQVTVSS", "assayResult": "high polyreactivity"}
{"constructSequence": "QVQLVESGGGLVQAGGSLRLSCAASGFIFSSNDMGWYRQAPGKERELVAAIDYSGGSTYYADSVKGRFTISRDNAKNTVYLQMNSLKPEDTAVYYCAATVYNPTDYYSPYYYWGQGTQVTGSS", "assayResult": "low polyreactivity"}

Problem: Return value of polyreactivity (PSR sort gate) for input QVQLVESGGGLVQAGGSLRLSCAASGSIFWKYAMGWYRQAPGKERELVAAISDGVSTNYADSVKGRFTISRDNAQNTVYLQMNSLKPEDTAVYYCNAETRERDPTREFDYWGQGTQVTVSS , no commentary.
Solution: low polyreactivity

Problem: Return value of polyreactivity (PSR sort gate) for input QVQLVETGGGLVQAGGSLRLRGAASGFTFPWYAMGWYRQAPGKERELVAAISTSGDSTYYADSVKGRFTISRDNAKNTVYLQMNSLKPEDTAVYYCAARVVRGRYGYWGQGTQVTVSS , no commentary.
Solution: high polyreactivity

Problem: Return value of polyreactivity (PSR sort gate) for input QVQLVESGGGLVQAGGSLRLSCAASGSIFPVYAMGWYRQSPGKERELVADITYTTGSTYYADSVKGRFTISRDNAKNTVYLQMNSLKPEDSAVYYCAKDFGFQSDSWGQGTQVTVSS , no commentary.
Solution: low polyreactivity

Problem: Return value of polyreactivity (PSR sort gate) for input QVQLVESGGGLVQAGGSLRLSCAASGRTFGPYAMGWYRQAPGKEREFVAAMSYSGGSTYYADSVKGRFTISRDTAKNTVFLQINSLKPEDTAVYYCAVDIDSNSGTRDYWGQGTQVTVSS , no commentary.
Solution: low polyreactivity

Problem: Return value of polyreactivity (PSR sort gate) for input RVQLVESGGGLVQAGGSLRLSCAASGSTISRYAMGWYRQAPGKERELVASISRSGTSTYYADSVKGRFTISRDNAKNTVYLQMNSLKPEDTAVYYCNKRWATSIQYRYNYWGQGTQVTVSS , no commentary.
Solution: high polyreactivity

Problem: Return value of polyreactivity (PSR sort gate) for input QVQLVESGGGLFQAGGSLRLSCAPSGHIFFYYTMGWYRPAPGKERELVAGITIGGSTNYADSVKGRFTISRDNAKNTVYLQMNSLKPEDTAVYYCNVVKYVYIYSYWESYYWGQGTQVTVSS , no commentary.
Solution: low polyreactivity

Problem: Return value of polyreactivity (PSR sort gate) for input QVQLVESGGGLVQAGGSLRLSCAASGRIFNGYAMGWYRQAPGKERELVAAITTSGGSTYYADSVKGRFTISRDNAKNTVYLQMNSLKPEDTAVYYCAKYYPRYAYDYWGQGTQVTVSS , no commentary.
Solution: low polyreactivity

Problem: Return value of polyreactivity (PSR sort gate) for input QVQLVESGGGLVQAGGSLRLSCAASGFTFEYNAMGGYRQDPGKERELVAAITTTGSTYYADSVKGRFTISRDNAKNTVYLQMNSLKPEDTAVYYCAADPVWRGYSYQFDYWGQGTQVTVSS , no commentary.
Solution: low polyreactivity
